Provenance of the data: patent US6380263B1

System: purified fungal tyrosinase (EC 1.14.18.1)
Assay: Modulation of tyrosinase activity (dopachrome formation from L-tyrosine, spectrophotometry at 475 nm)
Assay type: biochemical
Conditions: 100 μl of 1 mM derivative solution (PBS/1% ethanol) in 1000 μl mixture; substrate L-tyrosine; 37° C.; at least 30 minutes
Exercise: state measured Activation (% of activation of the tyrosinase activity relative to the control) for each of the compounds provided.
Kindly answer with a numeric value in %, unit omitted.

INPUT: Quote Activation (% of activation of the tyrosinase activity relative to the control) reported for `CCCNc1cc(N2CCCCC2)nc(N)[n+]1[O-]` please.
OUTPUT: 46

INPUT: Assign Activation (% of activation of the tyrosinase activity relative to the control) to the following record: `CCCNc1cc(N(C)C)nc(N)[n+]1[O-]`
OUTPUT: 50

INPUT: Identify measured Activation (% of activation of the tyrosinase activity relative to the control) associated with `CNc1cc(N(C)C)nc(NC)[n+]1[O-]`
OUTPUT: 61

INPUT: Give Activation (% of activation of the tyrosinase activity relative to the control) for the following compound: Nc1cc(N2CCCCC2)nc(N)[n+]1[O-] [Minoxidil, reference compound]
OUTPUT: 41

INPUT: For the compound `CCCNc1cc(N(C)C)nc(NCCC)[n+]1[O-]` , report Activation (% of activation of the tyrosinase activity relative to the control).
OUTPUT: 55

INPUT: Tell us which Activation (% of activation of the tyrosinase activity relative to the control) value is on record for `Nc1nc(N2CCCCC2)cc(NCc2ccccc2)[n+]1[O-]`
OUTPUT: 45

INPUT: State its Activation (% of activation of the tyrosinase activity relative to the control) for this compound: `Nc1nc(N2CCCCC2)cc(NCCO)[n+]1[O-]`
OUTPUT: 43

INPUT: Please report the measured Activation (% of activation of the tyrosinase activity relative to the control) for `CCCCCCNc1cc(N2CCCCC2)nc(N)[n+]1[O-]`
OUTPUT: 47

INPUT: Provide measured Activation (% of activation of the tyrosinase activity relative to the control) value, entry: `CCCCNc1cc(N(C)C)nc(N)[n+]1[O-]`
OUTPUT: 51

INPUT: Provide Activation (% of activation of the tyrosinase activity relative to the control) value for the following compound: `CC(C)Nc1cc(N(C)C)nc(N)[n+]1[O-]`
OUTPUT: 46

INPUT: Please supply the value of reported Activation (% of activation of the tyrosinase activity relative to the control) for the item `CNc1cc(N2CCCCC2)nc(N)[n+]1[O-]`
OUTPUT: 50

INPUT: Please supply the value of reported Activation (% of activation of the tyrosinase activity relative to the control) for the item `CCCNc1cc(N2CCCCC2)nc(NCCC)[n+]1[O-]`
OUTPUT: 57

INPUT: Answer with reported Activation (% of activation of the tyrosinase activity relative to the control) of `CCNc1cc(N(C)C)nc(NCC)[n+]1[O-]`
OUTPUT: 60
